target_system: CYP1A1 (Homo sapiens, UniProt P04798)
Sequence (P04798 whole entry): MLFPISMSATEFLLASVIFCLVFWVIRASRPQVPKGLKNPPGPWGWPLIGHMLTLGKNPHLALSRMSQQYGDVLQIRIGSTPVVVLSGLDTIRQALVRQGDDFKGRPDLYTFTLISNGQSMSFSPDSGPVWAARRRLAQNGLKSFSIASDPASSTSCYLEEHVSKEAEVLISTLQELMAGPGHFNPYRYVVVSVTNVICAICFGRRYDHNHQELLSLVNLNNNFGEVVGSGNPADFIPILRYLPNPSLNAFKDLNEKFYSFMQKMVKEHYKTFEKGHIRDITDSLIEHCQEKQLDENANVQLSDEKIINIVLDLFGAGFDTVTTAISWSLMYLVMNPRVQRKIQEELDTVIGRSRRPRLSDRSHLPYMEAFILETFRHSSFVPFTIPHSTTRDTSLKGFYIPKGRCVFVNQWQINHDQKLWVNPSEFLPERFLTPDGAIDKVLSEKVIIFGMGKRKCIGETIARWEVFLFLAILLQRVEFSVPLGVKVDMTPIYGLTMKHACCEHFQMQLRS
experimental_details: Inhibition of CYP1A1 in human Caco-2 cells assessed as relative activity by measuring fold change at 500 nM incubated for 12 hrs by EROD assay relative to control
Format: cell-based
settings: read-out: FC
quantity: fold induction at 12 h, 0.5 µM

Cn1c(=O)n(C)c2cc(C(=O)/C=C/c3ccc([N+](=O)[O-])o3)ccc21
0.71
CC(=O)n1cc(/C=C/C(=O)c2ccc3c(c2)n(C)c(=O)n3C)c2ccccc21
0.93
C#Cc1ccc(/C=C/C(=O)c2ccc(N(C)C(C)=O)cc2)cc1
0.81
Cn1c(=O)n(C)c2cc(C(=O)/C=C/C#Cc3ccccc3)ccc21
0.85
Cn1c(=O)n(C)c2cc(C(=O)/C=C/c3cc4ccccc4s3)ccc21
0.81

a: Cn1c(=O)n(C)c2cc(C(=O)/C=C/c3c(F)c(F)c(F)c(F)c3F)ccc21
b: Cn1c(=O)n(C)c2cc(C(=O)/C=C/c3ccc(I)o3)ccc21
c: Cn1c(=O)n(C)c2cc(C(=O)/C=C/c3ccccc3F)ccc21
Order the records by fold induction at 12 h, 0.5 µM, with each subsequent value no larger than the one before. Reply with the labels, ordered as the question asks.
a, b, c
(a: 0.8, b: 0.5, c: 0.32)

P: Cn1c(=O)n(C)c2cc(C(=O)/C=C/c3ncccn3)ccc21
Q: Cn1c(=O)n(C)c2cc(C(=O)/C=C/c3ccc4ccccc4n3)ccc21
R: Cn1c(=O)n(C)c2cc(C(=O)/C=C/c3cccnc3Br)ccc21
Endpoint returns the given compounds ordered by ascending fold induction at 12 h, 0.5 µM. Reply with the labels, ordered as the question asks.
Q, R, P
(Q: 0.38, R: 0.63, P: 1.05)

A: O=C(/C=C/c1ccc(F)cc1)c1ccccc1 [4-FLUORO CHALCONE]
B: Cn1c(=O)n(C)c2cc(C(=O)/C=C/c3ccoc3)ccc21
Between A and B , which one shows the larger fold induction at 12 h, 0.5 µM value? Use the label to indicate which entry you chose.
A
(A: 0.83, B: 0.57)

* * *

target_system: UniProt P00184
Sequence (P00184 whole entry): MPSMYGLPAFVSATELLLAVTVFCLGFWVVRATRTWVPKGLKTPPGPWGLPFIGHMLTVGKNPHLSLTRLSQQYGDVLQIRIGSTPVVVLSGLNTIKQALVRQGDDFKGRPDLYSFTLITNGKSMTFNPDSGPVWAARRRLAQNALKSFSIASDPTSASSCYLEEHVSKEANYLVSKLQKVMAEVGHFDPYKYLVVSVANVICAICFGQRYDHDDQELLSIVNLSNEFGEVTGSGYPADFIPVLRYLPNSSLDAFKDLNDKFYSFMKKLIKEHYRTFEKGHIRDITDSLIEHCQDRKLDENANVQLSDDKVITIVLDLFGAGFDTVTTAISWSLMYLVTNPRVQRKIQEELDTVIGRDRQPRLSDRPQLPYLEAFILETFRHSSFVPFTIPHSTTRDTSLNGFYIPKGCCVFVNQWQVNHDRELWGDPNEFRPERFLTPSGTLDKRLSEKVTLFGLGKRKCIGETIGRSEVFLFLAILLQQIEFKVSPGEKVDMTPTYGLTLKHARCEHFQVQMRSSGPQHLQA
experimental_details: Inhibition of CYP1A1 in mouse RAW264.7 cells assessed as relative activity by measuring fold change at 500 nM incubated for 12 hrs by EROD assay relative to control
Format: cell-based
settings: read-out: FC
quantity: fold induction at 12 h, 0.5 µM

Examples from the recorded data:
Cn1c(=O)n(C)c2cc(C(=O)/C=C/C=C/c3ccccc3)ccc21
0.62
Cn1c(=O)n(C)c2cc(C(=O)/C=C/c3cccn3C(=O)OC(C)(C)C)ccc21
0.69

A: Cn1cccc1/C=C/C(=O)c1ccc2c(c1)n(C)c(=O)n2C
B: Cn1c(=O)n(C)c2cc(C(=O)/C=C/c3ccccc3)ccc21
// compare: A vs B , metric fold induction at 12 h, 0.5 µM, want the smaller Use the label to indicate which entry you chose.
B
(B: 0.95, A: 1.47)

a: Cn1c(=O)n(C)c2cc(C(=O)/C=C/c3ccncc3)ccc21
b: CC(C)=CCC/C(C)=C/COc1c2ccoc2cc2oc(=O)ccc12
Between a and b , which one shows the larger fold induction at 12 h, 0.5 µM value? Use the label to indicate which entry you chose.
a
(a: 1.08, b: 0.44)

I: Cn1c(=O)n(C)c2cc(C(=O)/C=C/c3ccco3)ccc21
II: Cn1c(=O)n(C)c2cc(C(=O)/C=C/C#Cc3ccccc3)ccc21
III: Cn1c(=O)n(C)c2cc(C(=O)/C=C/c3ccccc3F)ccc21
Order the records by fold induction at 12 h, 0.5 µM, with each subsequent value no larger than the one before. Reply with the labels, ordered as the question asks.
III, II, I
(III: 1.17, II: 0.79, I: 0.5)

P: Cn1c(=O)n(C)c2cc(C(=O)/C=C/c3ccc(C(C)(C)C)cc3)ccc21
Q: Cn1c(=O)n(C)c2cc(C(=O)/C=C/c3ccoc3)ccc21
Between P and Q , which one shows the larger fold induction at 12 h, 0.5 µM value? Use the label to indicate which entry you chose.
Q

a: CCCCOc1ccc(/C=C/C(=O)c2ccc3c(c2)n(C)c(=O)n3C)cc1
b: Cn1c(=O)n(C)c2cc(C(=O)/C=C/c3coc4ccccc34)ccc21
// compare: a vs b , metric fold induction at 12 h, 0.5 µM, want the smaller Use the label to indicate which entry you chose.
b
(b: 0.5, a: 0.95)

1: Cn1c(=O)n(C)c2cc(C(=O)/C=C/c3ccccn3)ccc21
2: Cn1c(=O)n(C)c2cc(C(=O)/C=C/c3ccsc3)ccc21
Between 1 and 2 , which one shows the larger fold induction at 12 h, 0.5 µM value? Use the label to indicate which entry you chose.
1
(1: 0.9, 2: 0.58)

Source listed as ChEMBL document CHEMBL6178019.
